quantityMeasured: melting point

Some solved entries appear below for comparison.
- molecule: "CC(C)(C)Sc1c(CC(C)(C)C(=O)O)n(Cc2ccc(Cl)cc2)c2ccc(OCc3cscn3)cc12"
  melting point: "194 to 195 °C"
- molecule: "O=C(c1ccc2ccccc2c1)n1c2cc(O)c(O)cc2c2ccc(O)c(O)c21"
  melting point: "266 to 270 °C"
- molecule: "COC(=O)C1=C(C)NC(C)=C(P2(=O)OCCCO2)C1c1cccc([N+](=O)[O-])c1 (stereo not given)"
  melting point: "221 to 223 °C"

Lookup result for O=C(CNc1ccc(F)cc1)Nc1c(Cl)ccc2nc(N3CC[C@@H](O)C3)ccc12 ; measured melting point: 242 to 246 °C

Lookup result for OCC(O)Cc1ccc(Br)cc1 (stereo not given) ; measured melting point: 60.6 °C

Lookup result for CCCC(C(=O)NC)n1cc(C)c(-c2ccccc2)n1 (stereo not given) ; measured melting point: 84 to 86 °C

Lookup result for Cc1ccc(CN(c2ccccc2CC(=O)O)c2c(Cl)cccc2Cl)cc1 ; measured melting point: 154 to 158 °C

Lookup result for CN(Cc1ccccc1)C(=O)CCC(=O)c1ccc(Cl)c(S(N)(=O)=O)c1 ; measured melting point: 162 °C

Lookup result for COc1cc2c(c(Cl)c1Cl)C(=O)C(c1ccccc1)(c1ccccc1)C2 ; measured melting point: 172 to 174 °C

Lookup result for CCCc1c(OCCCOc2ccc(O)cc2)ccc2c1OC(CCC(=O)O)(CCC(=O)O)CC2=O ; measured melting point: 160 to 166 °C

Lookup result for CNc1nc(SC)ncc1C#N ; measured melting point: 189 to 190 °C

Lookup result for COc1cc(OC)nc(CC(=O)O)n1 ; measured melting point: 175 to 177 °C

Lookup result for CCOP(=O)(OCC)C(F)(F)c1ccc(CN(Cc2ccc(C(F)(F)P(=O)(OCC)OCC)cc2)C(=O)NCc2ccccc2)cc1 ; measured melting point: 124 to 127 °C

Lookup result for CCOC(=O)c1c(CCc2ccc(O)cc2)oc2ccc(C#N)cc12 ; measured melting point: 182 to 183 °C

Lookup result for CC[C@H](O)CC(=O)N[C@H]1CC[C@H](CCN2CCN(c3nccc4c3CCO4)CC2)CC1 ; measured melting point: 158 °C

Lookup result for Fc1ccccc1-c1cnc2nncn2n1 ; measured melting point: 193 to 196 °C

Lookup result for COC(=O)CCCc1cc2nc(Cl)ccc2n1S(=O)(=O)c1cccnc1 ; measured melting point: 119 °C

Lookup result for Cc1ccccc1-n1c(CF)nc2ccc(N)cc2c1=O ; measured melting point: 195 to 196 °C

Lookup result for O=C(NC/C=C\COc1cc(CN2CCCC2)ccn1)c1cn[nH]c1 ; measured melting point: 57 to 61 °C

Lookup result for CC(C)CN(Cc1nc(-c2ncn3c2CN(C)C(=O)c2ccccc2-3)no1)CC(C)C ; measured melting point: 170 to 172 °C

----------
quantityMeasured: melting point

Some solved entries appear below for comparison.
- molecule: "O=C(Nc1c(C(O)(C(F)(F)F)C(F)(F)F)ccc2ccccc12)c1ccc(Cl)c(Cl)c1"
  melting point: "174 to 175 °C"
- molecule: "Cc1cc(NC(=O)CN2CCN(c3ccccc3C#N)CC2)ccc1Br"
  melting point: "143 to 145 °C"
- molecule: "CCOC(=O)C=CN1C(C)(C)CC(OC(=O)CC(=O)OC2CC(C)(C)N(C=CC(=O)OCC)C(C)(C)C2)CC1(C)C"
  melting point: "100 to 102 °C"
- molecule: "O=[N+]([O-])c1ccc(NN=Cc2cnccn2)nc1"
  melting point: "271 to 272 °C"
- molecule: "CCOC(=O)c1cnc2c(SSc3ccccc3[N+](=O)[O-])cccn2c1=O"
  melting point: "191 to 193 °C"

Lookup result for O=C(Oc1cc(-c2ccccc2)c2ccccc2n1)N1CCCCC1 ; measured melting point: 85 °C

Lookup result for CNC(=O)C1=CC(C)(COC)Oc2ccc([N+](=O)[O-])cc21 (stereo not given) ; measured melting point: 128 to 130 °C

Lookup result for C#CCOc1ccccc1-n1cnc2cc(N)ccc21 ; measured melting point: 40 to 42 °C

Lookup result for COc1ccc(C(=O)C2=C(O)C(=O)N(c3nnc(C(C)C)s3)C2c2ccc(C(C)(C)C)cc2)cc1 (stereo not given) ; measured melting point: 257 °C

Lookup result for Cc1c(F)cc(C(=O)O)cc1-c1ccc(C(=O)NCC(C)(C)C)cc1C(=O)Nc1nccs1 ; measured melting point: 196 to 200 °C

Lookup result for N#CC(=Cc1ccc[nH]1)C(=O)O ; measured melting point: 213 °C

Lookup result for O=C(O)Cc1sccc1NC(=O)C(=O)NC(=O)c1ccco1 ; measured melting point: 169 °C

Lookup result for CCCCNS(=O)(=O)c1cc(C(=O)O)cc(Cl)c1Cl ; measured melting point: 160 to 165 °C

Lookup result for CC(=O)c1ccc(S(=O)(=O)N2CCCC2)cc1 ; measured melting point: 138 to 139 °C

Lookup result for O=[N+]([O-])c1ccc2oc(-c3sccc3CBr)nc2c1 ; measured melting point: 146 to 148 °C

Lookup result for O=C(NOCCO)c1cc(Cl)c(F)c(F)c1Nc1ccc(I)cc1 ; measured melting point: 174 to 176 °C

Lookup result for CCOC(=O)c1cn(CC)c2nc(N3CCN(c4ccccc4)CC3)ncc2c1=O ; measured melting point: 186 °C

Lookup result for NS(=O)(=O)c1ccc(NCC(=O)NC2CCCCC2)cc1 ; measured melting point: 223 to 225 °C

Lookup result for CCOC(=O)CCCOc1ccc(N2CCN(c3ccncc3)CC2)cc1 ; measured melting point: 84 to 85 °C

Lookup result for CONC(=O)c1[nH]c(C)c(-c2nc3ccc(Oc4ccccc4)cc3[nH]2)c1C ; measured melting point: 166 to 168 °C
